subjectOfTest: GST-Bcl-2 (Homo sapiens (Human))
Sequence (P10415 whole entry): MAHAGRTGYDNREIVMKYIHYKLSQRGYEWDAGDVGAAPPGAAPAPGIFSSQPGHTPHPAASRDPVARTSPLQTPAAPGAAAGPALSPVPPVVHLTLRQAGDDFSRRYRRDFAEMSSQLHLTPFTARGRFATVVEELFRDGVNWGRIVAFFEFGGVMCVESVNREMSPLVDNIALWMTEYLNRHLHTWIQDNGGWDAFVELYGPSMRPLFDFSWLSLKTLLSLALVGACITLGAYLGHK
methodNotes: Time Resolved-Fluorescence Resonance Energy Transfer (TR-FRET) Bcl-2 binding assay
studyConditions: GST-Bcl-2 1 nM, F-Bak peptide probe 100 nM, Tb-anti-GST antibody 1 nM; Ki by Wang's equation
pKi: −log10 of the molar value.

[
  {
    "compound": "CN(C)CCCNc1ccc(S(=O)(=O)NC(=O)c2ccc(N3CCN(CC4=C(c5ccc(Cl)cc5)CC(C)(C)CC4)CC3)cc2Oc2cccc(Cl)c2)cc1[N+](=O)[O-] [Example 142]",
    "pKi": 10.15
  },
  {
    "compound": "CN1CCC(Nc2ccc(S(=O)(=O)NC(=O)c3ccc(N4CCN(CC5=C(c6ccc(Cl)cc6)CC(C)(C)CC5)CC4)cc3Oc3c(F)cccc3Cl)cc2[N+](=O)[O-])CC1 [Example 151]",
    "pKi": 8.16
  },
  {
    "compound": "Nc1cccc(Oc2cc(N3CCN(Cc4ccccc4-c4ccc(Cl)cc4)CC3)ccc2C(=O)NS(=O)(=O)c2ccc(NCC3CCOCC3)c([N+](=O)[O-])c2)c1 [Example 19]",
    "pKi": 8.77
  },
  {
    "compound": "CC1(C)CCC(CN2CCN(c3ccc(C(=O)NS(=O)(=O)c4ccc(NC5CCN(Cc6cscn6)CC5)c([N+](=O)[O-])c4)c(Oc4cc5cc[nH]c5cc4F)c3)CC2)=C(c2ccc(Cl)cc2)C1 [Example 245]",
    "pKi": 9.32
  },
  {
    "compound": "CN(C)CCOc1cccc(Oc2cc(N3CCN(Cc4ccccc4-c4ccc(Cl)cc4)CC3)ccc2C(=O)NS(=O)(=O)c2ccc(NCC3CCOCC3)c([N+](=O)[O-])c2)c1 [Example 39]",
    "pKi": 10.72
  },
  {
    "compound": "CC1(C)CCC(CN2CCN(c3ccc(C(=O)NS(=O)(=O)c4ccc(NCC5CCOCC5)c([N+](=O)[O-])c4)c(Oc4cc5cc[nH]c5c(F)c4F)c3)CC2)=C(c2ccc(Cl)cc2)C1 [Example 243]",
    "pKi": 10.16
  },
  {
    "compound": "CC1(C)CCC(CN2CCN(c3ccc(C(=O)NS(=O)(=O)c4ccc(NC5CCN(C6CCOCC6)CC5)c([N+](=O)[O-])c4)c(Nc4ccccc4Cl)c3)CC2)=C(c2ccc(Cl)cc2)C1 [Example 226]",
    "pKi": 8.12
  },
  {
    "compound": "CC1(C)CCC(CN2CCN(c3ccc(C(=O)NS(=O)(=O)c4ccc(OCC5CCOCC5)c([N+](=O)[O-])c4)c(Oc4cnc(N)c(Cl)c4)c3)CC2)=C(c2ccc(Cl)cc2)C1 [Example 381]",
    "pKi": 10.70
  },
  {
    "compound": "CC1(C)CCC(CN2CCN(c3ccc(C(=O)NS(=O)(=O)c4ccc(NCC5(N)CCOCC5)c([N+](=O)[O-])c4)c(Oc4cc5cc[nH]c5cc4F)c3)CC2)=C(c2ccc(Cl)cc2)C1 [Example 248]",
    "pKi": 10.29
  },
  {
    "compound": "CC1(C)CCC(CN2CCN(c3ccc(C(=O)NS(=O)(=O)c4ccc(NC5CCN(C6CCOCC6)CC5)c([N+](=O)[O-])c4)c(Oc4cc5cc[nH]c5c(F)c4F)c3)CC2)=C(c2ccc(Cl)cc2)C1 [Example 201]",
    "pKi": 11.00
  },
  {
    "compound": "CC(c1ccccc1-c1ccc(Cl)cc1)N1CCN(c2ccc(C(=O)NS(=O)(=O)c3ccc(NCC4CCOCC4)c([N+](=O)[O-])c3)c(Oc3ccccc3Cl)c2)CC1 (centres unmarked) [Example 110]",
    "pKi": 10.41
  },
  {
    "compound": "CN1CCC(Nc2ccc(S(=O)(=O)NC(=O)c3ccc(N4CCN(CC5=C(c6ccc(Cl)cc6)CC(C)(C)CC5)CC4)cc3Oc3cccc(O)c3Cl)cc2[N+](=O)[O-])CC1 [Example 171]",
    "pKi": 10.18
  },
  {
    "compound": "CC1(C)CCC(CN2CCN(c3ccc(C(=O)NS(=O)(=O)c4ccc(N[C@H]5CCCN(C6CCOCC6)C5)c([N+](=O)[O-])c4)c(Oc4cc5cc[nH]c5cc4F)c3)CC2)=C(c2ccc(Cl)cc2)C1 [Example 329]",
    "pKi": 9.97
  },
  {
    "compound": "CCN(Cc1cccc(Oc2cc(N3CCN(Cc4ccccc4-c4ccc(Cl)cc4)CC3)ccc2C(=O)NS(=O)(=O)c2ccc(NCC3CCOCC3)c([N+](=O)[O-])c2)c1)C(=O)OC(C)(C)C [Example 79]",
    "pKi": 7.00
  },
  {
    "compound": "Nc1ccc(Oc2cc(N3CCN(Cc4ccccc4-c4ccc(Cl)cc4)CC3)ccc2C(=O)NS(=O)(=O)c2ccc(NCC3CCOCC3)c([N+](=O)[O-])c2)cc1 [Example 18]",
    "pKi": 8.60
  },
  {
    "compound": "CC1(C)CCC(CN2CCN(c3ccc(C(=O)NS(=O)(=O)c4ccc(NC5CCN(C6CCOCC6)CC5)c([N+](=O)[O-])c4)c(Oc4ccc(O)cc4Cl)c3)CC2)=C(c2ccc(Cl)cc2)C1 [Example 216]",
    "pKi": 10.57
  },
  {
    "compound": "CC1(C)CCC(CN2CCN(c3ccc(C(=O)NS(=O)(=O)c4ccc(NCC5CCOCC5)c([N+](=O)[O-])c4)c(Oc4cnc(N)c(C5CC5)c4)c3)CC2)=C(c2ccc(Cl)cc2)C1 [Example 366]",
    "pKi": 8.22
  },
  {
    "compound": "Cc1cc(Oc2cc(N3CCN(CC4=C(c5ccc(Cl)cc5)CC(C)(C)CC4)CC3)ccc2C(=O)NS(=O)(=O)c2ccc(NCC3CCOCC3)c([N+](=O)[O-])c2)cnc1N [Example 362]",
    "pKi": 10.48
  },
  {
    "compound": "CN(C)Cc1ccccc1Oc1cc(N2CCN(Cc3ccccc3-c3ccc(Cl)cc3)CC2)ccc1C(=O)NS(=O)(=O)c1ccc(NCC2CCOCC2)c([N+](=O)[O-])c1 [Example 31]",
    "pKi": 8.70
  },
  {
    "compound": "CN1CCC(Nc2ccc(S(=O)(=O)NC(=O)c3ccc(N4CCN(CC5=C(c6ccc(Cl)cc6)CC(C)(C)CC5)CC4)cc3Oc3cc4cc[nH]c4c(F)c3F)cc2[N+](=O)[O-])CC1 [Example 200]",
    "pKi": 10.09
  }
]
